These entries and their values trace back to paper PMC11786751.

biological target: Hck (Homo sapiens, UniProt P08631); construct: SH3 domain (p59 Hck amino acids 80–144); also SH3-SH2-linker (84–261) and near-full-length Hck (84–524); assay: 1H-15N HSQC NMR titration; also SPR (KD […], near-full-length), HDX-MS and kinase activation; assay type: binding
Sequence (P08631 75-139): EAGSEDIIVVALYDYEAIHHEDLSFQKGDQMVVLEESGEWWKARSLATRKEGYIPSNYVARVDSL
endpoint label: Kd (µM)
Numbers only, in µM.

**Query** Can you look up Kd on Hck (Homo sapiens, UniProt P08631) for `Cc1cnc(NCc2ccccc2-n2ccnc2)nc1N(C)C` ?
**Result** 65.1
